- Tested on: Setaria viridis
- Method notes: Pot-culture stem and leaf treatment, fresh weight inhibition (Gowing method)
- Assay type: in vivo
- Condition: dosage 375 g/hm^2
Form field: actual fresh weight inhibition rate (one value per entry).
Please make sure the unit comes right after the number.

Sample answers from the record:
CCNc1nc(Cl)nc(NC(C)C)n1 [atrazine] | 21.3%
CCc1cccc(C)c1N(C(=O)CCl)[C@@H](C)COC [s-metolachlor] | 2.9%
CCNc1nc(Cl)nc(NC(C)(C)C)n1 [terbuthylazine] | 25.2%

Problem: API: value(readout=actual fresh weight inhibition rate, system=Setaria viridis) for record CCCCOCN(C(=O)CCl)c1c(CC)cccc1CC [butachlor]
Result: 2.7%

---

Form field: actual fresh weight inhibition rate (one value per entry).
- Tested on: Setaria viridis
- Method notes: Pot-culture stem and leaf treatment, fresh weight inhibition (Gowing method)
- Assay type: in vivo
- Condition: dosage 1500 g/hm^2
Lab book: enter the figure in %, no units written.

CCNc1nc(Cl)nc(NC(C)(C)C)n1 | 42.3
CCCCOCN(C(=O)CCl)c1c(CC)cccc1CC | 5.9
CCc1cccc(C)c1N(C(=O)CCl)[C@@H](C)COC | 6.2

Could you now look at the following compound, please?
Problem: Recorded actual fresh weight inhibition rate for `CCNc1nc(Cl)nc(NC(C)C)n1` , please?
Result: 41.4
